Numbers sourced from ChEMBL document CHEMBL3639046.

// IC50 lookup, one value per entry
Target of assay: RAC-alpha serine/threonine-protein kinase (Homo sapiens)
Sequence (P31749 whole entry): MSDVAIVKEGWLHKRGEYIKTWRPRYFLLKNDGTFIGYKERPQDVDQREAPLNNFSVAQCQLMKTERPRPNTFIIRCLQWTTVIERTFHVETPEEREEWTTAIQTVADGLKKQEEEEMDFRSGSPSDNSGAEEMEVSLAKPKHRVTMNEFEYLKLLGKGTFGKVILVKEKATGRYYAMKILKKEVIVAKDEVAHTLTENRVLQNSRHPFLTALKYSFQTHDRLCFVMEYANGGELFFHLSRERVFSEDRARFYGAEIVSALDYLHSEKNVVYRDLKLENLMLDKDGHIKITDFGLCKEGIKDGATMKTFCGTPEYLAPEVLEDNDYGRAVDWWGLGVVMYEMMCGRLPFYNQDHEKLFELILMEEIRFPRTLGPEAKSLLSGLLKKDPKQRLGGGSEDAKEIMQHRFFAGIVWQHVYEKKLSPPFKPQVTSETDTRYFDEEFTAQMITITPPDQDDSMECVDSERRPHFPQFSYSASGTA
Assay info: TR-FRET assay: For the assay 50 nl of a 100fold concentrated solution of the test compound in DMSO was pipetted into a black low volume 384well microtiter plate (Greiner Bio- One, Frickenhausen, Germany), 2 ul of a solution of Akt1 in assay buffer [50 mM TRIS/HCI pH 7.5, 5 mM MgCI2, 1 mM dithiothreitol, 0.02% (v/v) Triton X-100 (Sigma)] were added and the mixture was incubated for 15 min at 22 C to allow pre-binding of the test compounds to the enzyme before the start of the kinase reaction. Then the kinase reaction was started by the addition of 3 ul of a solution of adenosine-tri-phosphate (ATP, 16.7 ul => final cone, in the 5 ul assay volume is 10 ul) and substrate (1 .67 ul => final cone, in the 5 ul assay volume is 1 ul) in assay buffer and the resulting mixture was incubated for a reaction time of 60 min at 22 C. The concentration of Akt1 in the assay was adjusted depending of the activity of the enzyme lot.

| Smiles text | U | IC50 |
| --- | --- | --- |
| N#Cc1ccc(-c2cccc3nn4cc(-c5ccccc5)c(-c5ccc(C6(N)CCC6)cc5)nc4c23)cc1 | nM | 320 |
| NC1(c2ccc(-c3nc4c5cccc(O)c5nn4cc3-c3ccccc3)cc2)CCC1 | nM | 100 |
